# assay.explanation: qHTS assay for small molecule activators of the nuclear factor-kappa B (NF-kB) signaling pathway (AID 651749); further: series mostly up to about 77 µM; % of control where 0% means no effect
# reported.conditions: NF-kB-bla ME-180 cells, beta-lactamase FRET ratio, 16 h; hits give high values
Inconclusive results are not listed. Active and inactive are the calls of the source. The call rests on the fitted dose curve; in most records, active means well fitted activation curve with a large enough effect in the signal ratio; inconclusive means small, poorly fitted or top-dose-only effect, or a change in a side signal; inactive means flat fitted curve, though single readings scatter; the % refers to the signal ratio.
readout.kind: activation

Query string: Look at this compound and give its reported activation. ClC1C(Cl)C(Cl)C(Cl)C(Cl)C1Cl (stereo unspecified)
Result string: -1.15% (inactive) [middle of 4 runs]

Query string: Look at this compound and give its reported activation. "NNC(N)=O"
Result string: -0.594% (inactive)

Query string: Look at this compound and give its reported activation. ClCC1CO1 (stereo unspecified)
Result string: 0.581% (inactive)

Query string: Look at this compound and give its reported activation. "C[C@H]1CCC[C@H](O)CCCCCc2cc(O)cc(O)c2C(=O)O1"
Result string: -0.26% (inactive)

Query string: Look at this compound and give its reported activation. "O=C(O)c1cc[c]([Hg][Cl])cc1"
Result string: 4.33% (inactive)

Query string: Look at this compound and give its reported activation. "[O]=[Cd]"
Result string: -0.74% (inactive)

Query string: Look at this compound and give its reported activation. "C=CCN=C=S"
Result string: -1.41% (inactive)

Query string: Look at this compound and give its reported activation. "O=C1C[C@@H]2OCC=C3CN4CC[C@]56c7ccccc7N1[C@H]5[C@H]2[C@H]3C[C@H]46"
Result string: -1.87% (inactive)

Query string: Look at this compound and give its reported activation. "O=C1C=CC(=O)C=C1"
Result string: -1.25% (inactive)

Query string: Look at this compound and give its reported activation. C#CCN1CC(=O)N(COC(=O)C2C(C=C(C)C)C2(C)C)C1=O (stereo unspecified)
Result string: 1.36% (inactive)

Query string: Look at this compound and give its reported activation. "O=[N+]([O-])c1ccc(F)c([N+](=O)[O-])c1"
Result string: -0.0445% (inactive)
